B1: library; numbered along this chain (parent)
chain: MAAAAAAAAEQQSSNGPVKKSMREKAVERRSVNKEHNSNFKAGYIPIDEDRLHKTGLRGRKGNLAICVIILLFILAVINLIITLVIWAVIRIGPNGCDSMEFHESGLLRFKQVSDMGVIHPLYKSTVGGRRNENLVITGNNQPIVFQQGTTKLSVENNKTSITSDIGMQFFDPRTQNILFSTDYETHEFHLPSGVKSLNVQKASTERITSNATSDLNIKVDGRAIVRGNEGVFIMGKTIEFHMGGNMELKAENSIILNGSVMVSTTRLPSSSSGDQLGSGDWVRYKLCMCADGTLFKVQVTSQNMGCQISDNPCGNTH

variants of: B1; test: SGCB cell-surface expression functional score (HA stain, bin4 vs bin1, normalised to synonymous) (log10 ratio); higher = more cell-surface SGCB (functional)
Label criterion met when SGCB cell-surface expression functional score (log10) is at or above 0.08; otherwise label criterion not met.

{"columns": ["variant.notation", "assigned.label"],
 "data": [
  ["M305D", "criterion not met"],
  ["S254L", "criterion met"],
  ["E28W", "criterion not met"],
  ["M247C", "criterion met"],
  ["K34D", "criterion met"]
]}

Pending variant:
Hi team, for "N132V" , is the recorded SGCB cell-surface expression functional score (log10) at or above 0.08?
criterion not met
